tgt: Granzyme B (Homo sapiens)
testProtocol: Tested for inhibition of granzyme B by the compound
measurementName: k obs / 1

Lookup: For the molecule CC(C)[C@H](NC(=O)CCc1ccccc1)C(=O)N[C@@H](C)C(=O)NN(CC(=O)O)C(=O)[C@H]1O[C@@H]1C(=O)OCc1ccccc1 (stereo in doubt; 23d(S,S)) , give its reported k obs / 1.
Found: < 0.3 M⁻¹ s⁻¹

Lookup: For the molecule CCOC(=O)[C@@H]1O[C@H]1C(=O)N(CC(=O)O)NC(=O)[C@@H](NC(=O)C(CCC(=O)O)NC(=O)[C@H](CC(=O)O)NC(=O)OCc1ccccc1)C(C)C (some centres undefined) , give its reported k obs / 1.
Found: < 0.1 M⁻¹ s⁻¹

Lookup: For the molecule CCOC(=O)[C@H]1O[C@@H]1C(=O)N(CC(=O)O)NC(=O)[C@@H](NC(=O)[C@H](CCC(=O)O)NC(=O)[C@H](CC(=O)O)NC(=O)OCc1ccccc1)C(C)C , give its reported k obs / 1.
Found: < 0.1 M⁻¹ s⁻¹

Lookup: For the molecule CCOC(=O)[C@H]1O[C@@H]1C(=O)N(CC(=O)O)NC(=O)[C@@H](NC(=O)[C@H](CCC(=O)O)NC(=O)[C@@H](NC(=O)OCc1ccccc1)[C@@H](C)CC)[C@@H](C)O , give its reported k obs / 1.
Found: 0.65 M⁻¹ s⁻¹

* * *

tgt: Caspase-6 (Homo sapiens)
testProtocol: Second-order inhibition rate of caspase-6 was determined by progress curve method
measurementName: k2 (M⁻¹ s⁻¹)

[
  {
    "molecule": "CC(C)C[C@H](NC(=O)OCc1ccccc1)C(=O)NC(CCC(=O)O)C(=O)N[C@H](C(=O)NN(CC(=O)O)C(=O)[C@H]1O[C@@H]1C(=O)NCCc1ccccc1)[C@@H](C)O (stereo partly drawn)",
    "measurementName": "k2",
    "unitOfMeasure": "M⁻¹ s⁻¹",
    "value": 10000
  }
]

1: CC(C)[C@H](NC(=O)CCc1ccccc1)C(=O)N[C@@H](C)C(=O)NN(CC(=O)O)C(=O)[C@H]1O[C@@H]1C(=O)OCc1ccccc1 (stereo in doubt; 23d(S,S))
2: CC[C@H](C)[C@H](NC(=O)OCc1ccccc1)C(=O)N[C@@H](CCC(=O)O)C(=O)N[C@H](C(=O)NN(CC(=O)O)C(=O)[C@@H]1O[C@H]1C(=O)OCc1ccccc1)[C@@H](C)O
Lookup: For the pair 1 and 2 , which entry has the numerically smaller recorded k2? When you have decided, please share the label of that item.
Found: 1
(1: 165 M⁻¹ s⁻¹, 2: 45400 M⁻¹ s⁻¹)

* * *

tgt: Caspase-8 (Homo sapiens)
testProtocol: Second-order inhibition rate of caspase-8 was determined by progress curve method
measurementName: k2 (M⁻¹ s⁻¹)

[
  {
    "molecule": "CCOC(=O)[C@H]1O[C@@H]1C(=O)N(CC(=O)O)NC(=O)[C@H](C)NC(=O)[C@@H](NC(=O)CCc1ccccc1)C(C)C",
    "k2 / M⁻¹ s⁻¹": 1570
  },
  {
    "molecule": "CC[C@H](C)[C@H](NC(=O)OCc1ccccc1)C(=O)N[C@@H](CCC(=O)O)C(=O)N[C@H](C(=O)NN(CC(=O)O)C(=O)[C@@H]1O[C@H]1C(=O)NCc1ccccc1)[C@@H](C)O",
    "k2 / M⁻¹ s⁻¹": 6500
  },
  {
    "molecule": "CC(C)[C@H](NC(=O)OCc1ccccc1)C(=O)NN(CC(=O)O)C(=O)[C@H]1O[C@@H]1CCc1ccccc1",
    "k2 / M⁻¹ s⁻¹": 180
  },
  {
    "molecule": "CCOC(=O)[C@@H]1O[C@H]1C(=O)N(CC(=O)O)NC(=O)[C@@H](NC(=O)C(CCC(=O)O)NC(=O)[C@H](CC(=O)O)NC(=O)OCc1ccccc1)C(C)C (some centres not stated)",
    "k2 / M⁻¹ s⁻¹": 785
  },
  {
    "molecule": "CCOC(=O)[C@H]1O[C@@H]1C(=O)N(CC(=O)O)NC(=O)[C@@H](NC(=O)[C@H](CCC(=O)O)NC(=O)OCc1ccccc1)C(C)C",
    "k2 / M⁻¹ s⁻¹": 195000
  },
  {
    "molecule": "CC(C)[C@H](NC(=O)C(CCC(=O)O)NC(=O)[C@H](CC(=O)O)NC(=O)OCc1ccccc1)C(=O)NN(CC(=O)O)C(=O)[C@H]1O[C@@H]1C(=O)N[C@@H](Cc1ccccc1)C(N)=O (some centres not stated)",
    "k2 / M⁻¹ s⁻¹": 29600
  },
  {
    "molecule": "CC[C@H](C)[C@H](NC(=O)OCc1ccccc1)C(=O)N[C@@H](CCC(=O)O)C(=O)N[C@H](C(=O)NN(CC(=O)O)C(=O)[C@@H]1O[C@H]1C(=O)OCc1ccccc1)[C@@H](C)O",
    "k2 / M⁻¹ s⁻¹": 4560
  },
  {
    "molecule": "CC(C)[C@H](NC(=O)CCc1ccccc1)C(=O)N[C@@H](C)C(=O)NN(CC(=O)O)C(=O)[C@H]1O[C@@H]1C(=O)NCC(O)c1ccccc1 (some centres not stated)",
    "k2 / M⁻¹ s⁻¹": 4090
  }
]

I: CC(C)[C@H](NC(=O)CCc1ccccc1)C(=O)N[C@@H](C)C(=O)NN(CC(=O)O)C(=O)[C@H]1O[C@@H]1C(=O)N[C@@H](Cc1ccc(O)cc1)C(N)=O
II: CC(C)[C@H](NC(=O)[C@H](CCC(=O)O)NC(=O)OCc1ccccc1)C(=O)NN(CC(=O)O)C(=O)[C@H]1O[C@@H]1C(=O)NCCc1ccccc1
III: CC(C)[C@H](NC(=O)CCc1ccccc1)C(=O)N[C@@H](C)C(=O)NN(CC(=O)O)C(=O)[C@H]1O[C@@H]1C(=O)NCCc1ccccc1
IV: CC(C)C[C@H](NC(=O)OCc1ccccc1)C(=O)NC(CCC(=O)O)C(=O)N[C@H](C(=O)NN(CC(=O)O)C(=O)[C@H]1O[C@@H]1C(=O)N[C@@H](C)C(=O)NCc1ccccc1)[C@@H](C)O (some centres not stated)
V: CC(C)[C@H](NC(=O)CCc1ccccc1)C(=O)N[C@@H](C)C(=O)NN(CC(=O)O)C(=O)[C@H]1O[C@@H]1C(=O)N[C@@H](Cc1ccccc1)C(N)=O
Lookup: Form: Sort by [k2] Order [ ascending ] Respond with the label ranking, as requested.
Found: I, V, III, IV, II

* * *

tgt: Caspase-8 (Homo sapiens) (UniProt Q14790)
Sequence (Q14790 217-374 limits assumed): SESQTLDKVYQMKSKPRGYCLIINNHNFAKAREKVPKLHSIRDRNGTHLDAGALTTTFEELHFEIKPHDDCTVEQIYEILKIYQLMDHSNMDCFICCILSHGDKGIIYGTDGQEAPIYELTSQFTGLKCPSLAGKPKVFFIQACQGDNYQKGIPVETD
Sequence (Q14790 385-479 limits assumed): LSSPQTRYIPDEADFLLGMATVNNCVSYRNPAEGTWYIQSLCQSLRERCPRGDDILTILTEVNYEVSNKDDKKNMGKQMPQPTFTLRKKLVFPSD
testProtocol: Second-order inhibition rate of caspase-8 was determined by progress curve method
measurementName: k2 (M⁻¹ s⁻¹)

[
  {
    "smilesStr": "CC[C@H](C)[C@H](NC(=O)OCc1ccccc1)C(=O)N[C@@H](CCC(=O)O)C(=O)N[C@H](C(=O)NN(CC(=O)O)C(=O)[C@@H]1O[C@H]1C(=O)N[C@@H](C)C(=O)NCc1ccccc1)[C@@H](C)O",
    "tgt": "Caspase-8 (Homo sapiens) (UniProt Q14790)",
    "measurementName": "k2",
    "unitOfMeasure": "M⁻¹ s⁻¹",
    "value": 56000
  }
]

I: CCOC(=O)[C@H]1O[C@@H]1C(=O)N(CC(=O)O)NC(=O)[C@@H](NC(=O)[C@H](CCC(=O)O)NC(=O)[C@@H](NC(=O)OCc1ccccc1)[C@@H](C)CC)[C@@H](C)O
II: CCOC(=O)[C@H]1O[C@@H]1C(=O)N(CC(=O)O)NC(=O)[C@@H](NC(=O)OCc1ccccc1)C(C)C
III: CC(C)[C@H](NC(=O)OCc1ccccc1)C(=O)NN(CC(=O)O)C(=O)[C@H]1O[C@@H]1C(=O)O
Lookup: Form: Sort by [k2] Order [ ascending ] Respond with the label ranking, as requested.
Found: III, II, I
